Biological target: Human Polθ polymerase domain (aa1820-2590) (Homo sapiens, UniProt O75417)
Construct: Human Polθ polymerase domain (aa1820-2590) was expressed in E. coli; made in house; host or cells: E. coli
Assay: Polθ Polymerase Domain Kinact/KI Assay (PicoGreen)
Type: biochemical
Conditions: 0.8 nM Polθ, 100 nM DNA substrate, kobs vs [I] fit for 2-step covalent inhibitor
measure_name: Kinact/Kl (M⁻¹ s⁻¹)

1. C=CC(=O)N1CCN2CC(=O)N(CCN3C[C@H]4CC(=O)N(c5cc(C(F)(F)F)cc(C)n5)[C@@H]4C(=O)N(C)c4cccc(F)c43)C[C@@H]2C1 [Example 47]
140000
2. C=CC(=O)N1Cc2ccc(CN3C[C@H]4CC(=O)N(c5cc(C(F)(F)F)cc(C)n5)[C@@H]4C(=O)N(C)c4cccc(F)c43)cc2C1 [Example 130]
710000

(P) C=CC(=O)N1Cc2cnc(CN3C[C@H]4CC(=O)N(c5cc(C(F)(F)F)cc(C)n5)[C@@H]4C(=O)N(C)c4cccc(Cl)c43)cc2C1 [Example 277]
(Q) C=CC(=O)N1Cc2cc(CN3C[C@H]4CC(=O)N(c5cc(C(F)(F)F)cc(C)n5)[C@@H]4C(=O)N(C)c4cccc(Cl)c43)cnc2[C@H]1CO (racemic) [Example 231]
Request: Hi! Which is lower in terms of Kinact/Kl, the first one P or the second one Q ? Provide the label of your selected option as the answer.
Response: P
(P: 80000 M⁻¹ s⁻¹, Q: 860000 M⁻¹ s⁻¹)

---

Molecular target: Human Polθ polymerase domain (aa1820-2590) (Homo sapiens)
Construct: Human Polθ polymerase domain (aa1820-2590) was expressed in E. coli; made in house; host or cells: E. coli
Experiment: Polθ Polymerase Domain Kinact/KI Assay (PicoGreen)
Type: biochemical
Conditions: 0.8 nM Polθ, 100 nM DNA substrate, kobs vs [I] fit for 2-step covalent inhibitor
measure_name: Kinact/Kl (M⁻¹ s⁻¹)

Answered cases to consult:
1. C=CC(=O)N1Cc2nc(CN3C[C@H]4CC(=O)N(c5cc(C(F)(F)F)cc(C)n5)[C@@H]4C(=O)N(C)c4cccc(Cl)c43)cn2CC1C(F)(F)F (single isomer, unassigned) [Example 293b]
1.28e+06
2. C=C(CN(C)C)C(=O)N[C@@H]1CCc2nc(CN3C[C@H]4CC(=O)N(c5cc(C(F)(F)F)cc(C)n5)[C@@H]4C(=O)N(C)c4cccc(C)c43)cn2C1 (mixture of isomers) [Example 329a]
1.73e+06
3. C=CC(=O)N1CCN(c2cccc(N3C[C@H]4CC(=O)N(c5cc(C(F)(F)F)cc(C)n5)[C@@H]4C(=O)N(C)c4cccc(Cl)c43)n2)CC1
36000

(I) Cc1cc(C(F)(F)F)cc(N2C(=O)C[C@@H]3CN(CCCCCNC(=O)/C=C/CN(C)C)c4c(C)cccc4N(C)C(=O)[C@H]32)n1
(II) C=CC(=O)N1CCOC[C@H]1c1ccc(CN2C[C@H]3CC(=O)N(c4cc(C(F)(F)F)cc(C)n4)[C@@H]3C(=O)N(C)c3cccc(C)c32)cn1 (racemic) [Example 324a]
Request: Looking only at measured Kinact/Kl, which entry is lower, I or II ? Indicate which entry you chose by stating its label.
Response: II

---

Target: Human Polθ polymerase domain (aa1820-2590) (Homo sapiens, UniProt O75417)
Construct: Human Polθ polymerase domain (aa1820-2590) was expressed in E. coli; made in house; host or cells: E. coli
Sequence (O75417 1820-2590): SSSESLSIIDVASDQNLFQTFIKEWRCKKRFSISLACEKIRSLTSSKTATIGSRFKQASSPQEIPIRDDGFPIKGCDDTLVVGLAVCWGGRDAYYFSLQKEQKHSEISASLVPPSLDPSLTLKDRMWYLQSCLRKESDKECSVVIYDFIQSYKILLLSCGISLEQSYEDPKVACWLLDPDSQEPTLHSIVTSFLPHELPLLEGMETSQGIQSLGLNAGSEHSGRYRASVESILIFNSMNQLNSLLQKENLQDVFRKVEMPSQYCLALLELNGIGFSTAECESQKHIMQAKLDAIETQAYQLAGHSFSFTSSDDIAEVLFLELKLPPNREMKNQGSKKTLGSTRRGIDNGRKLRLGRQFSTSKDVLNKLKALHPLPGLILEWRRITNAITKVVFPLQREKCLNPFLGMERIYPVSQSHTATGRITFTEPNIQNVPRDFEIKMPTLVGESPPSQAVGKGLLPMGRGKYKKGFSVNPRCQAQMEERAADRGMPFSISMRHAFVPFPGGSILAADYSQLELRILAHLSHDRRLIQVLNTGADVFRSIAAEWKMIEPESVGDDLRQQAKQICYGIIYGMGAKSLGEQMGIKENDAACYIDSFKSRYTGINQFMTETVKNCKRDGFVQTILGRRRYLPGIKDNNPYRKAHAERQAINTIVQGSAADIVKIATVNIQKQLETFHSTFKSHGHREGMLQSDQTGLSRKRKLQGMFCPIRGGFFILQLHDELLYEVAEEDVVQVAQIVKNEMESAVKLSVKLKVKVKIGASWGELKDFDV
Test: Polθ Polymerase Domain Kinact/KI Assay (PicoGreen)
Type: biochemical
Conditions: 0.8 nM Polθ, 100 nM DNA substrate, kobs vs [I] fit for 2-step covalent inhibitor
Experimental: Polθ Polymerase Domain Kinact/KI Assay A PicoGreen assay was used to measure the Kinact and KI values of covalent compounds that inhibit the activity of Polθ in vitro. Human Polθ polymerase domain (aa1820-2590) was expressed in E. coli, purified, aliquoted and stored at −80° C. until required. Polθ substrate was generated from a 1.2:1 mix of DNA II Short to DNA II Long to give a final concentration of […] substrate in annealing buffer (20 mM Tris pH 7.5, 50 mM NaCl). […]
measure_name: Kinact/Kl (M⁻¹ s⁻¹)

(a) C=CC(=O)N1CCN(CCCN2C[C@H]3CC(=O)N(c4cc(C(F)(F)F)cc(C)n4)[C@@H]3C(=O)N(C)c3cccc(C)c32)CC1C(F)(F)F (mixture of isomers) [Example 265b]
(b) C=C(CN(C)C)C(=O)N1CC(CCN2C[C@H]3CC(=O)N(c4cc(C(F)(F)F)cc(C)n4)[C@@H]3C(=O)N(C)c3cccc(Cl)c32)C1 [Example 298]
(c) C=CC(=O)N1CC(N2CC[C@H](CN3C[C@H]4CC(=O)N(c5cc(C(F)(F)F)cc(C)n5)[C@@H]4C(=O)N(C)c4cccc(Cl)c43)[C@@H](C#N)C2)C1 (single isomer, unassigned) [Example 226b]
(d) C=CC(=O)N1CC2CN(CCN3C[C@H]4CC(=O)N(c5cc(C(F)(F)F)cc(C)n5)[C@@H]4C(=O)N(C)c4cccc(F)c43)CCN2C[C@@H]1C (single isomer, unassigned) [Example 10]
(e) C=CC(=O)N1CC(N2CCN(CCN3C[C@H]4CC(=O)N(c5cc(C(F)(F)F)cc(C)n5)[C@@H]4C(=O)N(C)c4cc(F)ccc43)CC2)C1 [Example 15]
Request: Please give the order of these molecules when sorted by Kinact/Kl, largest value leading. Response field: labels, in requested order.
Response: b, a, c, d, e
(b: 3.64e+06 M⁻¹ s⁻¹, a: 1.58e+06 M⁻¹ s⁻¹, c: 870000 M⁻¹ s⁻¹, d: 210000 M⁻¹ s⁻¹, e: 73000 M⁻¹ s⁻¹)

(A) C=CC(=O)N1CCN(CCN2C[C@H]3CC(=O)N(c4cc(C(F)(F)F)cc(C)n4)[C@@H]3C(=O)N(C)c3cccc(C)c32)[C@@H](C)C1 [Example 260]
(B) C=CC(=O)N1Cc2cc(CN3C[C@H]4CC(=O)N(c5cc(C(F)(F)F)cc(C)n5)[C@@H]4C(=O)N(C)c4cccc(Cl)c43)ccc2[C@@H]1CC#N (racemic) [Example 287a]
(C) C=CC(=O)N1CC2(CN(CCN3C[C@H]4CC(=O)N(c5cc(C(F)(F)F)cc(C)n5)[C@@H]4C(=O)N(C)c4cccc(C)c43)C[C@@]2(C)C#N)C1 (racemic) [Example 119b]
(D) C=CC(=O)N1CC(N2CCC(N3C[C@H]4CC(=O)N(c5cc(C(F)(F)F)cc(C)n5)[C@@H]4C(=O)N(C)c4cccc(F)c43)CC2)C1 [Example 216]
Request: Please list the entries, largest Kinact/Kl first. The response must list the labels following the requested ordering.
Response: C, A, B, D
(C: 3.87e+06 M⁻¹ s⁻¹, A: 1.54e+06 M⁻¹ s⁻¹, B: 930000 M⁻¹ s⁻¹, D: 430000 M⁻¹ s⁻¹)

---

Biological target: Human Polθ polymerase domain (aa1820-2590) (Homo sapiens, UniProt O75417)
Construct: Human Polθ polymerase domain (aa1820-2590) was expressed in E. coli; made in house; host or cells: E. coli
Test: Polθ Polymerase Domain Kinact/KI Assay (PicoGreen)
Assay type: biochemical
Settings: 0.8 nM Polθ, 100 nM DNA substrate, kobs vs [I] fit for 2-step covalent inhibitor
measure_name: Kinact/Kl (M⁻¹ s⁻¹)

Here's what some known entries look like.
1. C=C(CN(C)C)C(=O)NCCOCCN1C[C@H]2CC(=O)N(c3cc(C(F)(F)F)cc(C)n3)[C@@H]2C(=O)N(C)c2cccc(C)c21
1.82e+06
2. C=CC(=O)N1CC(n2cnc(CN3C[C@H]4CC(=O)N(c5cc(C(F)(F)F)cc(C)n5)[C@@H]4C(=O)N(C)c4cccc(Cl)c43)c2)C1
3.42e+06
3. C=CC(=O)N1CC(O[C@H]2CN(CCN3C[C@H]4CC(=O)N(c5cc(C(F)(F)F)cc(C)n5)[C@@H]4C(=O)N(C)c4cccc(F)c43)C[C@@H]2O)C1 (relative stereo)
400000
4. C=C(C)C(=O)N1CC(OCCCN2C[C@H]3CC(=O)N(c4cc(C(F)(F)F)cc(C)n4)[C@@H]3C(=O)N(C)c3cccc(Cl)c32)C1
1.18e+06

(P) C=CC(=O)N1Cc2ncc(CN3C[C@H]4CC(=O)N(c5cc(C(F)(F)F)cc(C)n5)[C@@H]4C(=O)N(C)c4cccc(C)c43)cc2[C@H]1CC#N (racemic) [Example 320a]
(Q) C=CC(=O)N1CCC(N2CCC(CN3C[C@H]4CC(=O)N(c5cc(C(F)(F)F)cc(C)n5)[C@@H]4C(=O)N(C)c4cccc(Cl)c43)CC2)C1 (stereo partly drawn)
Request: Between P and Q , which one has the lower reported Kinact/Kl value? The response must carry the label of the picked entry.
Response: P
